Target: Adenosine receptor A3 (Rattus norvegicus, UniProt P28647)
Sequence (P28647 whole entry): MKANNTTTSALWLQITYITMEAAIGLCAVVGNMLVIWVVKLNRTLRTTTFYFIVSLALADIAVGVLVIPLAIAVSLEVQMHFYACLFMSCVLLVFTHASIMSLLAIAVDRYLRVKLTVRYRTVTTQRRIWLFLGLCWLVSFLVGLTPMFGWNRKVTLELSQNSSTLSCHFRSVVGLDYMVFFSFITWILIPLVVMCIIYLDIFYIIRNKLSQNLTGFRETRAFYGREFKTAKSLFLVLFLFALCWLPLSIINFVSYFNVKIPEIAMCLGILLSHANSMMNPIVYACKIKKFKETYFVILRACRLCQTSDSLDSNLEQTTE
pKi: −log10 of the molar value.
PROPERTY: pKi

INSERT INTO measurements (sample_smiles, numeric_value) VALUES
  ('CCCCn1c(=O)c2[nH]c(-c3ccc(OCC(=O)O)cc3)nc2n(CCCC)c1=O', 4.56);

###

Biological target: Adenosine receptor A2b (Homo sapiens, UniProt P29275)
Sequence (P29275 whole entry): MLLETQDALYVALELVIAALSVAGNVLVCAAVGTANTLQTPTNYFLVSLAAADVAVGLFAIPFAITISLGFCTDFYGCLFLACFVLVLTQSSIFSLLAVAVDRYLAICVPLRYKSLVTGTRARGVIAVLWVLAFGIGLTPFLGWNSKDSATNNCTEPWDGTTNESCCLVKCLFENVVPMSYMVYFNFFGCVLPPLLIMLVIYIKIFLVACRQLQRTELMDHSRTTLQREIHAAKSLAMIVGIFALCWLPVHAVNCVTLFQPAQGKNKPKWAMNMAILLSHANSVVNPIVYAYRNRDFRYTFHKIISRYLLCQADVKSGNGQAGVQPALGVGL
PROPERTY: Ki (nM)

INSERT INTO assay_data (sample_smiles, uom, numeric_value) VALUES
  ('CCn1c(=O)c2[nH]c(-c3ccc(OCC(=O)Nc4ccc(CC(=O)NCCN)cc4)cc3)nc2n(CC)c1=O', 'nM', 15.2);
